B1: Caulobacter ParB omega fusion; a variant is named by its letters at X, in order, B8GW30 (parent)
chain: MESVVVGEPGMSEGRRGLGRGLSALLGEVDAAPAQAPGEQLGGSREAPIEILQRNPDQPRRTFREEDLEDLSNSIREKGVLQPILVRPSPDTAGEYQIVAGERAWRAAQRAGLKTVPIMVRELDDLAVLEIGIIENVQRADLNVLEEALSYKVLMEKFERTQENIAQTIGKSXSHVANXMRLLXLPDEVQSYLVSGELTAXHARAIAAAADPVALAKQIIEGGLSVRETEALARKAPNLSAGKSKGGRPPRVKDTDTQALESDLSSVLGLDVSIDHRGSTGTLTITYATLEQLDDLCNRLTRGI

- Variants of: B1
- Test description: one-hybrid fitness for binding NBS DNA (the Noc-binding site; scaled: cognate 1, non-cognate 0); higher = stronger binding
- Experimental context: with NBS DNA site
Whole data set: some 81,000 sequences, median “one-hybrid fitness for binding NBS DNA” near -0.1, cut for the highest 2% near 0.36. The full list was thinned out, with the highest values kept by preference.
Measured metric: one-hybrid fitness for binding NBS DNA

>  <Mutation name>
QKER

>  <Measured metric>
one-hybrid fitness for binding NBS DNA

>  <Value measured>
0.363

$$$$
>  <Mutation name>
LVAP

>  <Measured metric>
one-hybrid fitness for binding NBS DNA

>  <Value measured>
≤ 0.2

$$$$
>  <Mutation name>
QKGN

>  <Measured metric>
one-hybrid fitness for binding NBS DNA

>  <Value measured>
≤ 0.2

$$$$
>  <Mutation name>
QKCR

>  <Measured metric>
one-hybrid fitness for binding NBS DNA

>  <Value measured>
0.519

$$$$
>  <Mutation name>
GTQM

>  <Measured metric>
one-hybrid fitness for binding NBS DNA

>  <Value measured>
≤ 0.2

$$$$
>  <Mutation name>
QKRM

>  <Measured metric>
one-hybrid fitness for binding NBS DNA

>  <Value measured>
0.4

$$$$
>  <Mutation name>
QKGP

>  <Measured metric>
one-hybrid fitness for binding NBS DNA

>  <Value measured>
≤ 0.2

$$$$
>  <Mutation name>
FDSL

>  <Measured metric>
one-hybrid fitness for binding NBS DNA

>  <Value measured>
≤ 0.2

$$$$
>  <Mutation name>
RCNA

>  <Measured metric>
one-hybrid fitness for binding NBS DNA

>  <Value measured>
0.298

$$$$
>  <Mutation name>
QKGR

>  <Measured metric>
one-hybrid fitness for binding NBS DNA

>  <Value measured>
0.616

$$$$
>  <Mutation name>
QCCR

>  <Measured metric>
one-hybrid fitness for binding NBS DNA

>  <Value measured>
0.599

$$$$
>  <Mutation name>
SSCT

>  <Measured metric>
one-hybrid fitness for binding NBS DNA

>  <Value measured>
≤ 0.2

$$$$
>  <Mutation name>
QACS

>  <Measured metric>
one-hybrid fitness for binding NBS DNA

>  <Value measured>
0.272

$$$$
>  <Mutation name>
SMYN

>  <Measured metric>
one-hybrid fitness for binding NBS DNA

>  <Value measured>
≤ 0.2

$$$$
>  <Mutation name>
RSDA

>  <Measured metric>
one-hybrid fitness for binding NBS DNA

>  <Value measured>
≤ 0.2

$$$$
>  <Mutation name>
QMCY

>  <Measured metric>
one-hybrid fitness for binding NBS DNA

>  <Value measured>
0.212

$$$$
>  <Mutation name>
CVKD

>  <Measured metric>
one-hybrid fitness for binding NBS DNA

>  <Value measured>
≤ 0.2

$$$$
>  <Mutation name>
QMAG

>  <Measured metric>
one-hybrid fitness for binding NBS DNA

>  <Value measured>
≤ 0.2

$$$$
>  <Mutation name>
QMST

>  <Measured metric>
one-hybrid fitness for binding NBS DNA

>  <Value measured>
0.457

$$$$
>  <Mutation name>
QSLT

>  <Measured metric>
one-hybrid fitness for binding NBS DNA

>  <Value measured>
0.327

$$$$
>  <Mutation name>
QKYM

>  <Measured metric>
one-hybrid fitness for binding NBS DNA

>  <Value measured>
≤ 0.2

$$$$
>  <Mutation name>
GSGL

>  <Measured metric>
one-hybrid fitness for binding NBS DNA

>  <Value measured>
≤ 0.2

$$$$
>  <Mutation name>
QMMQ

>  <Measured metric>
one-hybrid fitness for binding NBS DNA

>  <Value measured>
≤ 0.2

$$$$
>  <Mutation name>
INML

>  <Measured metric>
one-hybrid fitness for binding NBS DNA

>  <Value measured>
≤ 0.2

$$$$
>  <Mutation name>
LEMR

>  <Measured metric>
one-hybrid fitness for binding NBS DNA

>  <Value measured>
≤ 0.2

$$$$
>  <Mutation name>
QMND

>  <Measured metric>
one-hybrid fitness for binding NBS DNA

>  <Value measured>
≤ 0.2

$$$$
>  <Mutation name>
AVER

>  <Measured metric>
one-hybrid fitness for binding NBS DNA

>  <Value measured>
≤ 0.2

$$$$
>  <Mutation name>
QKSR

>  <Measured metric>
one-hybrid fitness for binding NBS DNA

>  <Value measured>
0.65

$$$$
>  <Mutation name>
MMLC

>  <Measured metric>
one-hybrid fitness for binding NBS DNA

>  <Value measured>
≤ 0.2

$$$$
>  <Mutation name>
QISS

>  <Measured metric>
one-hybrid fitness for binding NBS DNA

>  <Value measured>
0.228

$$$$
>  <Mutation name>
QMHF

>  <Measured metric>
one-hybrid fitness for binding NBS DNA

>  <Value measured>
≤ 0.2

$$$$
>  <Mutation name>
KHMV

>  <Measured metric>
one-hybrid fitness for binding NBS DNA

>  <Value measured>
≤ 0.2

$$$$
>  <Mutation name>
QCKK

>  <Measured metric>
one-hybrid fitness for binding NBS DNA

>  <Value measured>
0.485

$$$$
>  <Mutation name>
QCLT

>  <Measured metric>
one-hybrid fitness for binding NBS DNA

>  <Value measured>
0.487

$$$$
>  <Mutation name>
QACH

>  <Measured metric>
one-hybrid fitness for binding NBS DNA

>  <Value measured>
≤ 0.2

$$$$
>  <Mutation name>
RRNA

>  <Measured metric>
one-hybrid fitness for binding NBS DNA

>  <Value measured>
0.679

$$$$
>  <Mutation name>
RPNA

>  <Measured metric>
one-hybrid fitness for binding NBS DNA

>  <Value measured>
≤ 0.2

$$$$
>  <Mutation name>
SQRK

>  <Measured metric>
one-hybrid fitness for binding NBS DNA

>  <Value measured>
≤ 0.2

$$$$
>  <Mutation name>
RPPT

>  <Measured metric>
one-hybrid fitness for binding NBS DNA

>  <Value measured>
≤ 0.2

$$$$
>  <Mutation name>
QHSR

>  <Measured metric>
one-hybrid fitness for binding NBS DNA

>  <Value measured>
0.51

$$$$
>  <Mutation name>
QPCR

>  <Measured metric>
one-hybrid fitness for binding NBS DNA

>  <Value measured>
≤ 0.2

$$$$
>  <Mutation name>
WVLY

>  <Measured metric>
one-hybrid fitness for binding NBS DNA

>  <Value measured>
≤ 0.2

$$$$
>  <Mutation name>
QLKK

>  <Measured metric>
one-hybrid fitness for binding NBS DNA

>  <Value measured>
0.346

$$$$
>  <Mutation name>
QISP

>  <Measured metric>
one-hybrid fitness for binding NBS DNA

>  <Value measured>
≤ 0.2

$$$$
>  <Mutation name>
MTLT

>  <Measured metric>
one-hybrid fitness for binding NBS DNA

>  <Value measured>
≤ 0.2

$$$$
>  <Mutation name>
VPYS

>  <Measured metric>
one-hybrid fitness for binding NBS DNA

>  <Value measured>
≤ 0.2

$$$$
>  <Mutation name>
QTDM

>  <Measured metric>
one-hybrid fitness for binding NBS DNA

>  <Value measured>
≤ 0.2

$$$$
>  <Mutation name>
TNGR

>  <Measured metric>
one-hybrid fitness for binding NBS DNA

>  <Value measured>
≤ 0.2

$$$$
>  <Mutation name>
QMCM

>  <Measured metric>
one-hybrid fitness for binding NBS DNA

>  <Value measured>
≤ 0.2

$$$$
>  <Mutation name>
YKRT

>  <Measured metric>
one-hybrid fitness for binding NBS DNA

>  <Value measured>
≤ 0.2

$$$$
>  <Mutation name>
QVPV

>  <Measured metric>
one-hybrid fitness for binding NBS DNA

>  <Value measured>
≤ 0.2

$$$$
>  <Mutation name>
RCDA

>  <Measured metric>
one-hybrid fitness for binding NBS DNA

>  <Value measured>
≤ 0.2

$$$$
>  <Mutation name>
QSQK

>  <Measured metric>
one-hybrid fitness for binding NBS DNA

>  <Value measured>
≤ 0.2

$$$$
>  <Mutation name>
RNVM

>  <Measured metric>
one-hybrid fitness for binding NBS DNA

>  <Value measured>
≤ 0.2

$$$$
>  <Mutation name>
HAAV

>  <Measured metric>
one-hybrid fitness for binding NBS DNA

>  <Value measured>
≤ 0.2

$$$$
>  <Mutation name>
RRIT

>  <Measured metric>
one-hybrid fitness for binding NBS DNA

>  <Value measured>
0.788

$$$$
>  <Mutation name>
QTRM

>  <Measured metric>
one-hybrid fitness for binding NBS DNA

>  <Value measured>
0.562

$$$$
>  <Mutation name>
QRQK

>  <Measured metric>
one-hybrid fitness for binding NBS DNA

>  <Value measured>
0.365

$$$$
>  <Mutation name>
CCQR

>  <Measured metric>
one-hybrid fitness for binding NBS DNA

>  <Value measured>
≤ 0.2

$$$$
>  <Mutation name>
VDGI

>  <Measured metric>
one-hybrid fitness for binding NBS DNA

>  <Value measured>
≤ 0.2

$$$$
>  <Mutation name>
QKSD

>  <Measured metric>
one-hybrid fitness for binding NBS DNA

>  <Value measured>
≤ 0.2

$$$$
>  <Mutation name>
GCVM

>  <Measured metric>
one-hybrid fitness for binding NBS DNA

>  <Value measured>
≤ 0.2

$$$$
>  <Mutation name>
REGM

>  <Measured metric>
one-hybrid fitness for binding NBS DNA

>  <Value measured>
≤ 0.2

$$$$
>  <Mutation name>
LIRR

>  <Measured metric>
one-hybrid fitness for binding NBS DNA

>  <Value measured>
≤ 0.2

$$$$
>  <Mutation name>
SGGC

>  <Measured metric>
one-hybrid fitness for binding NBS DNA

>  <Value measured>
≤ 0.2

$$$$
>  <Mutation name>
QCRM

>  <Measured metric>
one-hybrid fitness for binding NBS DNA

>  <Value measured>
0.505

$$$$
>  <Mutation name>
QECR

>  <Measured metric>
one-hybrid fitness for binding NBS DNA

>  <Value measured>
≤ 0.2

$$$$
>  <Mutation name>
QPLT

>  <Measured metric>
one-hybrid fitness for binding NBS DNA

>  <Value measured>
≤ 0.2

$$$$
>  <Mutation name>
LSCN

>  <Measured metric>
one-hybrid fitness for binding NBS DNA

>  <Value measured>
≤ 0.2

$$$$
>  <Mutation name>
QKKK

>  <Measured metric>
one-hybrid fitness for binding NBS DNA

>  <Value measured>
0.437

$$$$
>  <Mutation name>
WKWG

>  <Measured metric>
one-hybrid fitness for binding NBS DNA

>  <Value measured>
≤ 0.2

$$$$
>  <Mutation name>
EVMR

>  <Measured metric>
one-hybrid fitness for binding NBS DNA

>  <Value measured>
≤ 0.2

$$$$
>  <Mutation name>
QPRM

>  <Measured metric>
one-hybrid fitness for binding NBS DNA

>  <Value measured>
≤ 0.2

$$$$
>  <Mutation name>
QACR

>  <Measured metric>
one-hybrid fitness for binding NBS DNA

>  <Value measured>
0.447

$$$$
>  <Mutation name>
MNYT

>  <Measured metric>
one-hybrid fitness for binding NBS DNA

>  <Value measured>
≤ 0.2

$$$$
>  <Mutation name>
PEYD

>  <Measured metric>
one-hybrid fitness for binding NBS DNA

>  <Value measured>
≤ 0.2

$$$$
>  <Mutation name>
PFKY

>  <Measured metric>
one-hybrid fitness for binding NBS DNA

>  <Value measured>
≤ 0.2

$$$$
>  <Mutation name>
QKCM

>  <Measured metric>
one-hybrid fitness for binding NBS DNA

>  <Value measured>
≤ 0.2

$$$$
>  <Mutation name>
QKYR

>  <Measured metric>
one-hybrid fitness for binding NBS DNA

>  <Value measured>
0.505

$$$$
>  <Mutation name>
QSSR

>  <Measured metric>
one-hybrid fitness for binding NBS DNA

>  <Value measured>
0.526

$$$$
>  <Mutation name>
CTNW

>  <Measured metric>
one-hybrid fitness for binding NBS DNA

>  <Value measured>
≤ 0.2

$$$$
>  <Mutation name>
QMCR

>  <Measured metric>
one-hybrid fitness for binding NBS DNA

>  <Value measured>
0.509

$$$$
